Tested on: Streptococcus pneumoniae 1175
Format: cell-based
Conditions: Streptococcus pneumoniae 1175; microtiter broth dilution
From the text: The assay described herein includes a panel of bacterial strains assembled to include a variety of target pathogenic species, including representatives of macrolide resistance mechanisms that have been characterized. In many cases, both the macrolide-susceptible parent strain and the macrolide-resistant strain derived from it are available to provide a more accurate assessment of the compound's ability to circumvent the resistance mechanism. […]
Recorded MIC S. pneumo. 1175 values for a group of compounds are listed next.

compound	MIC S. pneumo. 1175
CCC1OC(=O)C(C)C(=O)C(C)C(OC2OC(C)CC(N(C)C)C2O)C(C)(OC)CC(C)C(=O)C(C)C2N(C3CN(S(=O)(=O)c4ccc5c(c4)CS(=O)(=O)C5)C3)C(=O)OC12C (stereo not drawn) [Example 3.95]	<0.06 µg/mL
CCC1OC(=O)C(C)(F)C(=O)C(C)C(OC2OC(C)CC(N(C)C)C2O)C(C)(OC)CC(C)C(=O)C(C)C2N(C3CN(C(C)c4ccnc5ncccc45)C3)C(=O)OC12C (stereo not drawn) [Example 1.32]	0.25 µg/mL
CCC1OC(=O)C(C)C(=O)C(C)C(OC2OC(C)CC(N(C)C)C2O)C(C)(OC)CC(C)C(=O)C(C)C2N(C3CN(S(=O)(=O)c4cccc(Oc5ccc(F)cc5)c4)C3)C(=O)OC12C (stereo not drawn) [Example 3.110]	<0.063 µg/mL
